Assay: Toxicity in human erythrocytes assessed as hemolysis at 3 uM after 40 mins
Format: cell-based, Erythrocyte
Details: read-out: Activity
Where a SMILES comes first, the peptide text is derived from it.
hemolysis at 40 min, 3 µM listing for selected molecules.
// note: answer is a bare numeric in %

{"columns": ["molecule", "unit-name", "hemolysis at 40 min, 3 µM"],
 "data": [
  ["CC[C@H](C)[C@H](NC(=O)[C@H](CCCNC(=N)N)NC(=O)CNC(=O)[C@H](CC(C)C)NC(=O)[C@H](Cc1ccccc1)NC(=O)[C@H](CCCCN)NC(=O)[C@H](CO)NC(=O)[C@H](Cc1ccccc1)NC(=O)[C@H](Cc1c[nH]c2ccccc12)NC(=O)[C@H](CCCNC(=N)N)NC(=O)[C@@H](NC(=O)[C@@H](N)Cc1ccccc1)C(C)C)C(=O)N[C@@H](CC(C)C)C(N)=O (H-FVRWFSKFLGRIL-NH2)", "%", 20]
]}

Now take the following molecule into account.
The reported hemolysis at 40 min, 3 µM of the molecule "CC[C@H](C)[C@H](NC(=O)[C@H](CCCNC(=N)N)NC(=O)[C@@H]1CCCN1C(=O)[C@H](CC(C)C)NC(=O)[C@H](Cc1ccccc1)NC(=O)[C@H](CCCCN)NC(=O)[C@H](CO)NC(=O)[C@H](Cc1ccccc1)NC(=O)[C@H](Cc1c[nH]c2ccccc12)NC(=O)[C@@H]1CCCN1C(=O)[C@@H](NC(=O)[C@@H](N)Cc1ccccc1)C(C)C)C(=O)N[C@@H](CC(C)C)C(N)=O" was 2
